Let's look at some variants and their measured protein stability index.
B1: IKZF1 (parent)
chain: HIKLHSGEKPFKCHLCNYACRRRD

- Variants of: B1
- run.description: protein stability index of a GFP-peptide fusion (GPS, HEK-293T) (PSI 1-6); higher = more stable;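 note: lentivirally expressed fusions sorted by FACS into six bins by GFP to DsRed ratio, PSI derived from sequencing read proportions per bin multiplied by bin number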
- measurement.setup: c terminus: a fixed tail appended
Answer with a bare number; do not write a unit.

Past entries and their recorded results:
E8Y    2.06
R22C    1.87

Qu. Would you kindly share the measured protein stability index for C13A ?
Ans. 2.28

Qu. Same read-out for H5Y ?
Ans. 2.45

Qu. Cool, now P10H
Ans. 1.67

Qu. Okay, and I2C ?
Ans. 2.44

Qu. Now consider L4A .
Ans. 1.99

Qu. Repeat for the following variant: D24K
Ans. 2.48

Qu. Follow-up item: C16W
Ans. 2.14

Qu. Okay, and F11G ?
Ans. 2.06

Qu. Now the same for H14M
Ans. 1.54
